assayed_system: pooled human IgG
Enzyme Activity Endpoint Assay: Fab′2 values by entry
Entry rule: numbers only, all in ng/µL.

Completed entries (count: 3):
protein	endpoint	numeric_value
PRT-537 (protein) MANQEIRYSSDSEWANKKVWVYGITPPEEGAWFYSTYYLPWKKEYGWYDCNKRNPTADGMMCWAASASNLLHWWIAQNKEYIDLYGDKYKGPDKINFNGEQMFDVKEYIDPLDKPQESDIFQCFIDKSFADLSTKHEAGKGDAGINWFIHGIIPSSPAHGPTPVKLRYPYNPAGYFKDVFPRGDGVVLLGNNGDFKELGKERFNETIKDALANKKGIGLSIGPVNVRSSHVVTIWGAEFDENGDVSYIYMADNNDRWGVGCIRYQIVYEEGGTYTCYKTEIIPSDRPIPINRLVTLELGEEYWKQTNLEHHHHHH	Enzyme Activity Endpoint Assay: Fab′2	0
PRT-43 (protein) MANQEIRYSEVTPYHVTSVWTKGVTPPANFTQGEDVFHAPYVANQGWYDITKTFNGKDDLLCGAATAGNMLHWWFDQNKDQIDRYLEEHPEKQKINFNGEQMFDVKEAIDTKNDQTDSKLFEYFKEKAFPYLSTKHLGVFPDLVIDMFINGYRLSLTNHGPTPVKEGSKDPRGGIFDAVFTRGDQSKLLTSRHDLKEKNLKEISDLIKKELTEGKALGLSHTYANVRINHVINLWGADFDSNGNLKAIYVTDSDSNASIGMKKYFVGVNSAGKVAISAKEIKEDNIGAQVLGLFTLSTGQDSWNQTN	Enzyme Activity Endpoint Assay: Fab′2	23
PRT-47 (protein) MANQEIRYSEVTPYHVTSVWTKGVTPPANFTQGEDVFHAPYVANQGWYDINKTFNGGDDLLCGAATAGNMLHWWFDQNKDQIDRYLKEHPEKAKINFNGEQMFDVKEAIDTKNDQTNSKLFEYFKEKAFPYLSTKHLGVFPDLVLDMFINGYRLSLTNHGPTPVKEGSKDPRGGFFDAVFTRGDQSKLLTSRHDFKEKNLKEISDLIKKELTEGKALGLSHTYANVRINHVINLWGADFDSNGNLKAIYVTDSDSNASVGMKKYFVGVNSAGKVAISAKEIKEDNIGAQVLGLFTLSTGQDSWNQTN	Enzyme Activity Endpoint Assay: Fab′2	0

Consider the additional protein presented here.
Using the record for PRT-50 (protein) MANQEIRYSEVTPYHVTSVWTKGVTPPANFTQGEDVFHAPYVANQGWYDINKTFNGKDDLLCGAATAGNMLHWWFDQNKEQIERYLKEHPEKGKINFNGEQMFDVKEAIDTKNNQTDSKLFEYFKEKAFPYLSTKHLGVFPDRVLDMFINGYRLSLTNHGPTPVKEGSKDPRGGFFDDVFGRGDQSKLLTSRHDFKEKNLEEISDLIKKELTEGKALGLSHTYANVRINHVINLWGADFDSNGNLKAIYVTDSDSNASVGMKKYFVGVNSAGKVAISAKEIKEDNIGAQVLGLFTLSTGQDSWNQTN , report its Enzyme Activity Endpoint Assay: Fab′2.
0

Source of measurements: patent US20250027068
